B1: ADD1 (parent)
chain: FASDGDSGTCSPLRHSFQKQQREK

# Variants of: B1
# ASSAY_EXPLANATION: protein stability index of a GFP-peptide fusion (GPS, HEK-293T) (PSI 1-6); higher = more stable;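 note: lentivirally expressed fusions sorted by FACS into six bins by GFP to DsRed ratio, PSI derived from sequencing read proportions per bin multiplied by bin number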
# ASSAY_CONTEXT: c terminus: a fixed tail appended
Listed here: items and their measured protein stability index.
MEASURED_ENDPOINT: protein stability index

variant_code=D4K assay_result=2.51
variant_code=K24C assay_result=3.41
variant_code=P12N assay_result=4.95
variant_code=S3Y assay_result=1.93
variant_code=F17G assay_result=3.44
variant_code=R22S assay_result=4.21
variant_code=D4L assay_result=3.48
variant_code=S11H assay_result=2.62
variant_code=R22K assay_result=4.57
variant_code=S3H assay_result=4.05
variant_code=S7Y assay_result=3.04
